Overview of reported Ki across a group of compounds:
- systemUnderTest: ACE (Sigma, A2580) (Sus scrofa, UniProt F1RRW5)
- Construct: ACE from porcine kidney; purchased Sigma A2580; host or cells: porcine kidney
- Sequence (F1RRW5 34-1309): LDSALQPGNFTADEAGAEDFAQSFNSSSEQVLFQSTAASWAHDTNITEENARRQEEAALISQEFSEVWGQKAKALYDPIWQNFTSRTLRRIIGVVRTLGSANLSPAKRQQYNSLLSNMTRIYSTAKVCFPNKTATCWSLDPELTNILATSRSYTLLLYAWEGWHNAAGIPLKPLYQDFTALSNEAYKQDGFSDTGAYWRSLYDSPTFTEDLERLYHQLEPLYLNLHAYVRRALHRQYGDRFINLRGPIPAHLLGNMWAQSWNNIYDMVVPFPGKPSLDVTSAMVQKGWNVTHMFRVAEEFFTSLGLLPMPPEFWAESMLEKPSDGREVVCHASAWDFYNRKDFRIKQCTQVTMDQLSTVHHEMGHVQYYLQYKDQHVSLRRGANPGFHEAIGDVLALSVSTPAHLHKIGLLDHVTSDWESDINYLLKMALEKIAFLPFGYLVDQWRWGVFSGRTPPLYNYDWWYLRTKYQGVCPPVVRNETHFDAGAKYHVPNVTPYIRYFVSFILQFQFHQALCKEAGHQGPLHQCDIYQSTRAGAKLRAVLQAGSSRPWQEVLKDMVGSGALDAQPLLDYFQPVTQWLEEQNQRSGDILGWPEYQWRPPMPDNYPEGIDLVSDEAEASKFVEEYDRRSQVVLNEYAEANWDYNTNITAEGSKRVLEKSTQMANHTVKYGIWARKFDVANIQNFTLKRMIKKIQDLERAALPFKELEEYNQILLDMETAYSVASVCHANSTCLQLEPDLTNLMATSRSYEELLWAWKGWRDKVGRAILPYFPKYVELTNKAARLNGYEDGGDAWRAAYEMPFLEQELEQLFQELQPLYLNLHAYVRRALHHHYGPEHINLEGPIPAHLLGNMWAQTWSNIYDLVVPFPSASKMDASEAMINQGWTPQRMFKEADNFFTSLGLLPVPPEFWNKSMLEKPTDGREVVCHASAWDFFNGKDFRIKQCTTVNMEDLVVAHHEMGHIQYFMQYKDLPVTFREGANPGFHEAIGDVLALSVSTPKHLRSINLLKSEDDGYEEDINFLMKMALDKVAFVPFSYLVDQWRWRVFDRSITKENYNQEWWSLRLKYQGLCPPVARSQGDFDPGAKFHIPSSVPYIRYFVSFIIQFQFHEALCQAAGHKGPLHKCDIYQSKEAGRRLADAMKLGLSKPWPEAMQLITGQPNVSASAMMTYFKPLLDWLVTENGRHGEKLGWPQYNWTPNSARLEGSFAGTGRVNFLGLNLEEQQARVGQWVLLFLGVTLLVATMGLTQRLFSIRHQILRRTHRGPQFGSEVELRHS
- assayProtocol: ACE enzymatic activity assay
- Assay type: biochemical, porcine
- testSettings: Ki class; compounds tested in 5% DMSO, 12 concentrations

O=C(O)[C@H](CC1CC1)N[C@H](CCc1ccccc1)C(=O)O; > 50 µM
CC(NC(Cc1cccs1)C(=O)O)C(=O)O (stereo not shown); > 50 µM
CC(C)C[C@H](N[C@@H](C(=O)O)c1ccccc1)C(=O)O; > 50 µM
CC(C)CC(N[C@@H](Cc1cncn1Cc1ccc(Cl)cc1)C(=O)O)C(=O)O (single isomer, unassigned) [GN]; > 50 µM
O=C(O)C(Cc1ccccc1)N[C@@H](Cc1cnc[nH]1)C(=O)O (stereo partly shown) [EQ]; > 50 µM
CCCC(N[C@@H](CC(C)C)C(=O)O)C(=O)O (stereo in doubt); > 50 µM
CC(C)CC(N[C@@H](Cc1cncn1COCc1ccccc1)C(=O)O)C(=O)O (single isomer, unassigned) [FH]; > 50 µM
CC(C)CC(N[C@H](CC(=O)O)Cc1ccsc1)C(=O)O (stereo in doubt); > 50 µM

Turning to the following compound.
QUERY: If you can, please state the reported Ki value of O=C(O)C(CO)N[C@@H](CCc1ccccc1)C(=O)O (stereo partly shown) .
RESULT: > 50 µM
